# Tested on: HeLa
# assay notes: percent cells in G2/M phase; higher = more G2/M arrest
# assay conditions: 10 µM; 20 h
Where a name gives a salt, the structure may show the parent alone.
Where percent cells in G2/M phase equals or exceeds 20%, the correct label is 1; where it does not, the label is 0.

Q: Say whether Cc1cc([N+](=O)[O-])ccc1NCc1ccc(F)c(F)c1 (hit class: G1-phase inhibitor) shows percent cells in G2/M phase of 20% or more.
Ans: 0

Q: Nc1ccn([C@H]2CC[C@@H](CO)O2)c(=O)n1 [Zalcitabine] (hit class: S-phase inhibitor) ?
Ans: 1

Q: Note, next up: COc1ccc(CSc2nncn2N)cc1 (hit class: S-phase inhibitor)
Ans: 0

Q: And for CCN(CC)Cc1c(O)ccc2c(=O)c(-c3ccccc3)coc12 (hit class: S-phase inhibitor) ?
Ans: 0

Q: Same read-out for C[C@@H]1C[C@H]2[C@@H]3C[C@H](F)C4=CC(=O)C=C[C@]4(C)[C@@]3(Cl)[C@@H](O)C[C@]2(C)[C@H]1C(=O)COC(=O)C(C)(C)C [Clocortolone pivalate] (hit class: S-phase inhibitor) ?
Ans: 1

Q: Next entry: COc1[nH]c2ccccc2c1C=NO (hit class: S-phase inhibitor)
Ans: 0

Q: Note, next up: Cc1cc(N2CCCCC2)c(F)cc1[N+](=O)[O-] (hit class: S-phase inhibitor)
Ans: 1

Q: Consider next the compound O=C1c2c(O)ccc(O)c2C(=O)c2c(NCCNCCO)ccc(NCCNCCO)c21 [Mitoxantrone dihydrochloride] (hit class: G1-phase inhibitor) in the same way.
Ans: 0

Q: Entry Cn1c(SCc2ccccc2)nc2ccccc2c1=O (hit class: S-phase inhibitor) please
Ans: 0

Q: What do you get for Cc1ccc(-c2cc(-c3ccccc3Cl)[nH]n2)c(O)c1 (hit class: G1-phase inhibitor) ?
Ans: 0

---

# System: HeLa
# assay notes: percent cells in G1/S phase; higher = more G1/S content
# assay conditions: 10 µM; 20 h; hit class: G2/M-phase inhibitor
Consider the following compounds; for each one, report its percent cells in G1/S phase.
# number only, unit % dropped from output

Q: Recorded percent cells in G1/S phase for O=c1[nH]c(/C=C/c2ccccc2F)nc2ccccc12 , please?
Ans: 19.2

Q: Next entry: O=c1[nH]c(/C=C/c2ccccc2)nc2ccccc12
Ans: 24.1

Q: Can you check COc1ccccc1NC1=CC(=O)CC(c2ccccc2)C1 (centres undefined) next?
Ans: 21.6

Q: Now consider CC(=O)O[C@H]1C(=O)[C@@]2(C)[C@H]([C@H](OC(=O)c3ccccc3)[C@]3(O)C[C@H](OC(=O)[C@H](O)[C@@H](NC(=O)c4ccccc4)c4ccccc4)C(C)=C1C3(C)C)[C@]1(OC(C)=O)CO[C@@H]1C[C@@H]2O .
Ans: 16.5

---

I'd appreciate it if you could supply percent cells in G2/M phase values for the items below.
# Test system: HeLa
# assay notes: percent cells in G2/M phase; higher = more G2/M arrest
# assay conditions: 10 µM; 20 h; hit class: G2/M-phase inhibitor
Reply numerically in %, unit not repeated.

Q: # query: percent cells in G2/M phase of entry O=C(CSc1nc2ccc([N+](=O)[O-])cc2s1)c1ccc(Cl)cc1
Ans: 69.3

Q: What about this compound? COc1cc(NS(=O)(=O)c2ccc(NC(C)=O)cc2)c(OC)cc1Cl
Ans: 71

Q: Also, O=c1[nH]c(/C=C/c2ccccc2F)nc2ccccc12 please.
Ans: 76.3

Q: Input CC(=O)O[C@H]1C(=O)[C@@]2(C)[C@H]([C@H](OC(=O)c3ccccc3)[C@]3(O)C[C@H](OC(=O)[C@H](O)[C@@H](NC(=O)c4ccccc4)c4ccccc4)C(C)=C1C3(C)C)[C@]1(OC(C)=O)CO[C@@H]1C[C@@H]2O [Paclitaxel]
Ans: 75.7
